We begin with a simple list: items and their reported inhibition at 50 µM.
# target-or-test-system: InhA (enoyl ACP reductase) (Mycobacterium tuberculosis)
# Sequence (P9WGR1 whole entry, looked up): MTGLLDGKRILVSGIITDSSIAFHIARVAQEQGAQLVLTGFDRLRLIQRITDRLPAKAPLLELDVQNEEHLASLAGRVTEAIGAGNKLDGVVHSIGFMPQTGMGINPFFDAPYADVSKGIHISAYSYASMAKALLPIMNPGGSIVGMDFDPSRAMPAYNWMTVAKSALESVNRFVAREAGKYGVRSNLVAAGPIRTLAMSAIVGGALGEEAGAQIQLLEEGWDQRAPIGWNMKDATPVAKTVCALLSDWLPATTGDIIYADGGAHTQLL
# method-description: Enoyl ACP reductase (InhA) inhibition
# Format: biochemical

| given-smiles | inhibition at 50 µM, % |
| --- | --- |
| Cc1ccc(C)n1-c1ccc(C(=O)NNC(=O)Cc2ccc(F)cc2)cc1 | 88 |
| Cc1ccc(C)n1-c1ccc(C(=O)NNC(=O)Cc2ccc(Cl)cc2)cc1 | 76 |
| Cc1ccc(C)n1-c1ccc(C(=O)NNC(=O)Cc2ccc(Br)cc2)cc1 | 72 |
| Cc1ccc(CC(=O)NNC(=O)c2ccc(-n3c(C)ccc3C)cc2)cc1 | 20 |
| COc1ccc(CC(=O)NNC(=O)c2ccc(-n3c(C)ccc3C)cc2)cc1 | 32 |
